Target: T1, human ASGR-1 (wild type) (human, UniProt P07306 1-291)
T1 construct: also called wt ASGR1; huASGR-1
T1 sequence: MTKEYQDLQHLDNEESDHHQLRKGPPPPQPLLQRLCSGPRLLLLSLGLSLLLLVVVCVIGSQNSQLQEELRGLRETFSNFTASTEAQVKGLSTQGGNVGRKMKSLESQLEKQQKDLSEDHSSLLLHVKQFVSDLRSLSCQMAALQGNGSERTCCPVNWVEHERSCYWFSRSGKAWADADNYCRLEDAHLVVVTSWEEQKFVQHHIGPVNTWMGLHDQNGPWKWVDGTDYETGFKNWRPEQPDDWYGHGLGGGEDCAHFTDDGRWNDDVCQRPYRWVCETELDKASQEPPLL
Assay: FACS, transfected CHO-S cells, mAb 5 ug/ml
Collected FACS Binding Geomean values appear next to each entry.
measured attribute: FACS Binding Geomean

{"binder": "65D5 (antibody, V domains shown, mAb) VH: QVQLVQSGAEVKKPGASVKVSCKASGYTFPSYGISWVRQAPGQGLEWMGWISAYSGNTNYAQKLQGRVTMTTDTSTSTAYMELRSLRSDDTAVYFCARGEAVAVFDPWGQGTLVTVSS VL: DIQMTQSPSSLSASVGDRVTITCRASQDINNYLAWFQQKPGKAPRSLIYAASSLHSGVPSQFSASGSGSDFTLTISSLQPEDFATYYCPLYKSYPLTFGPGTKVDIK", "observed measurement": 41000}
{"binder": "198G3 (antibody, V domains shown, mAb) VH: QVQLVESGGGVVQPGRSLKLSCAASGFTFSTYGMHWVRQAPGKGLEWVAVIWYDGTNKNYADSVKGRFTISRDNSKNTLCLQMNSLRAEDTAVYYCARDQGVGYDGLDVWGQGTTVTVSS VL: DIQMAQSPSSLSASVGDRVTITCRTSQGIGKYLAWFQQKPGKAPKSLLYKASSLQGGVPSKFSGSGSGTDFTLTISSLQPEDFATYYCQQYMTYPLTFGGGTKVEIK", "observed measurement": 21500}
{"binder": "194C10 (antibody, V domains shown, mAb) VH: QVQLQQWGAGLLKPSETLSLTCAVSGGSFRYYYWSWIRQPPGKGLEWFGEINHSGSTNYNPSLKSRVTISIDTSKNQFSLKLRSVTAADTAVYYCARDYGAFDIWGQGTMVTVSS VL: EIVLTQSPGTLSLSPGERATLSCRASPSVNSGYLAWYQQKPGQTPRLLIFGASSRATGIPDRFSASGSGADFTLTISRLEPEDFAVYFCQQYESSPWTFGQGTKVEIK", "observed measurement": 28100}
{"binder": "48B12 (antibody, V domains shown, mAb) VH: EVQLLESGGGLVQPGGSLRLSCAASGFTFSSYAMNWVRQAPGKGLEWVSAISGRGGNTFYADSVKGRFTISRDNSKNTLYLQMNSLRAEDTAVYYCAKRETYNWNYEGFDYWGQGTLVTVSS VL: SYELTQPPSVSVSPGQTARITCSGDALPKKYAYWYQQKSGQAPVLVIYEDSKRPSGIPERFSGSSSGTMATLTISGAQVEDEADYYCNSTDSSGNHVVFGGGTKLTVL", "observed measurement": 52500}
{"binder": "202A3 (antibody, V domains shown, mAb) VH: QVQLEQSGAEVKKPGASVKVSCKASGYTFTSYDINWVRQATGQGLEWLGWMNPKRGNTGYAQKFQGRVTMTRNTSISTAHMELSSLRSEDTAVYYCARGRYSREDYYYYYDMDVWGQGTTVTVSS VL: DIQMSQSPSSLSASVGDRVTITCRASQGIRNDLGWYQQKPGKAPKRLICAASRLQSGVPSRFSGSGSGTEFTLTISSLQPEDFAIYYCLQHHDYPFTFGPGTKVDIK", "observed measurement": 24800}
{"binder": "29E2 (antibody, V domains shown, mAb) VH: QVQLVESGGGVVQPGRSLRLSCAASGFTFSNCVMHWVRQAPGKGLEWVAVIWYDGSNKYYADSVKGRITISRDNSKNTLYLQMNSLRAEDTAVYYCAREEYSSGWYDYGMDVWGQGTTVTVSS VL: DIQMTQSPSSLSASVGDRVTITCRASQAIRNDLGWYQQRPGKAPKRLIYAASSLQSGVPSRFSGSGSGTEFILTISSLQPEDFATYYCLQHYNYPRSFGQGTKLEIK", "observed measurement": 25800}
{"binder": "25A4 (antibody, V domains shown, mAb) VH: QVLLVQSGAEVKRPGASVKVSCKASGYTFTNYDINWVRQATGQGLEWMGWMYPNSGNTGYAQKFQGRVTMTRNTSISTAYMELSSLRSEDTAVYYCASSSGWYYFDYWGQGTLVTVSS VL: DIVMTQFPDSLAVSLGERATIKCKSSQSVLYSSHNNNYLAWYQQKPGQPPKLLLYWASTRESGVPDRFSGSGSGTEFTLTISSLEAEDVAVYYCQQYYSTPPTFGQGTKVEIK", "observed measurement": 55600}
{"binder": "72G9 (antibody, V domains shown, mAb) VH: EVQLVESGGGLVKPGGSLRLSCAASGFTFSSYSMNWVRQAPGKGLEWVSSISGSSSYIYYADSVKGRFTISRDNAKNSLYLQMNSLRAEDTAVYFCARGGSRGFDPWGQGTLVTVSS VL: DIQMTQSPSSLSASVGDRVTITCRASQSITSYLNWYQQKPGKAPKLLIYTASSLQSGVPSRFSGSGSGTDFTLTISSLQPEDFATYYCQQSHSFPFTFGPGTKVDIK", "observed measurement": 36500}
{"binder": "173C11 (antibody, V domains shown, mAb) VH: QVQLVESGGGVVQPGRSLRLSCAASGFTFSSYGIHWVRQAPGKGLEWVALIFYDGSNKYYADSVKGRFTISRDNSKNTLYLHMSSLRAEDTAVYYCARRYSSSWSGGMDVWGQGTTVTVSS VL: DIVMTQTPLSLSVTPGQPASISCKSSQSLLHSEGKTYLYWYLQKPGQPPQLLIYEVSHRFSGVPDRFSGSGSGTDFTLKISRVEAEDVGVYYCMQSIQLLTFGGGTKVEIK", "observed measurement": 28500}
{"binder": "194A4 (antibody, V domains shown, mAb) VH: QVQLVQSGTEVKKPGASLKVSCKASGYTFTVYYLNWVRQAPGQGLEWMGWINPNSGGTNYAQKFQGRVTMTRDTSISTAYMELSRLRSDDTAVYYCARGYDILTGWGQGTLVTVSS VL: EIVLTQSPGTLSLSPGERATLSCRASRGVSNIYLAWYQQKPGQAPRLLIYGASNRATGIPDRFSGSGSGTDFTLTISRLEPEDFAVYYCQHNDYSMFTFGPGTKVDIK", "observed measurement": 16300}
